# Tested on: primary human mesenchymal stem cells (hMSCs)
# assay_explanation: Induction of chondrogenesis in hMSCs (Rhodamine B / Nile Red nodule imaging)
# Format: cell-based
# test_conditions: maximum activity relative to TGF-β3 (10 ng/mL) positive control, read-out: Max. Activity as % TGF-β3 activity
# Method: Representative compounds were screened using primary human mesenchymal stem cells (hMSCs) to determine their ability to induce chondrogenesis (process by which cartilage is developed). […] Area of nodules in each well was normalized to the average of 3 DMSO treated wells on the same plate using Excel (Microsoft Inc.). The normalized averages (fold change over DMSO) of 2 or 3 replicate wells for each compound concentration were calculated. […]
metric: Emax
Report the figure along with its unit, number first.

Look over these answered cases.
• c1cc2[nH]c(-c3n[nH]c4ccc(-c5cncc(CN6CCCC6)c5)cc34)cc2cn1 = 26%
• Fc1ccc(-c2nccc3[nH]c(-c4n[nH]c5ccc(-c6cncc(CN7CCCC7)c6)cc45)cc23)cc1 = 98%

Then this compound:
Fill in Emax for record `CC(C)C(=O)Nc1cncc(-c2ccc3[nH]nc(-c4cc5c(-c6ccccc6F)nccc5[nH]4)c3c2)c1`
108%

====

Here the recorded pEC50 is given for each entry.
# Tested on: primary human fibroblasts derived from IPF patients (LL29 cells) treated with TGF-β1
# assay_explanation: Inhibition of the fibrotic process (αSMA staining) in TGF-β1-treated fibroblasts
# Assay type: cell-based
# test_conditions: Fibroblast, 96 h, % αSMA-positive LL29 cells, TGF-β1 20 ng/mL, 4 days
# Procedure: Representative compounds were screened using primary human fibroblasts (derived from IPF patients) treated with TGF-β1 to determine their ability to inhibit the fibrotic process. LL29 cells are plated at 1,500 cells/well in 80 μL/well F12 medium supplemented with 1% Fetal Bovine Serum. […] Wells treated with TGF-P1 and containing DMSO were used as controls. […]
FYI, pEC50 means -log10 of a concentration in mol per litre.

Examples with their reported pEC50 follow.
• Fc1cccc(-c2nccc3[nH]c(-c4n[nH]c5ccc(-c6ccccn6)cc45)cc23)c1 = 6.38
• c1ccc(-c2ccc3[nH]nc(-c4cc5c(-c6cccs6)nccc5[nH]4)c3c2)nc1 = 5.75
• Fc1cccc(-c2nccc3[nH]c(-c4n[nH]c5ccc(-c6cccnc6)cc45)cc23)c1 = 7.36
• O=C(Nc1cncc(-c2ccc3[nH]nc(-c4cc5c(-c6ccc(F)cc6)nccc5[nH]4)c3c2)c1)c1ccccc1 = 6.30
• Cc1ccncc1-c1ccc2[nH]nc(-c3cc4c(-c5ccoc5)nccc4[nH]3)c2c1 = 6.54

Return pEC50 (reported value) for this molecule: `O=C(Nc1cncc(-c2ccc3[nH]nc(-c4cc5c(N6CCCCC6)nccc5[nH]4)c3c2)c1)C1CCC1`
6.47

Find the measured pEC50 of `Nc1cncc(-c2ccc3[nH]nc(-c4cc5c(-c6ccncc6)nccc5[nH]4)c3c2)c1` and report it.
5.86

====

Entries annotated with measured pEC50
# Test system: primary human fibroblasts derived from IPF patients (LL29 cells) treated with TGF-β1
# assay_explanation: Inhibition of the fibrotic process (αSMA staining) in TGF-β1-treated fibroblasts
# Format: cell-based
# test_conditions: Fibroblast, 96 h, % αSMA-positive LL29 cells, TGF-β1 20 ng/mL, 4 days
Scale note: pEC50 = -log10(concentration in M).

- O=C(Nc1cncc(-c2ccc3[nH]nc(-c4cc5cnccc5[nH]4)c3c2)c1)C1CCCCC1 [Compound 275]: 6.96

Please indicate recorded pEC50 of FC1(F)CCN(Cc2cncc(-c3ccc4[nH]nc(-c5cc6c(N7CCCCC7)nccc6[nH]5)c4c3)c2)C1 [Compound 194] measured with primary human fibroblasts derived from IPF patients (LL29 cells) treated with TGF-β1.
6.00

# return pEC50 of c1cc2[nH]c(-c3n[nH]c4ccc(-c5cncc(CN6CCCCC6)c5)cc34)cc2cn1 [Compound 267] (system: primary human fibroblasts derived from IPF patients (LL29 cells) treated with TGF-β1)
6.24

Please tell me the measured pEC50 for c1cncc(-c2ccc3[nH]nc(-c4cc5c(N6CCCCC6)nccc5[nH]4)c3c2)c1 [Compound 172] ; system: primary human fibroblasts derived from IPF patients (LL29 cells) treated with TGF-β1.
5.98

Give reported pEC50 for CC(C)(C)CC(=O)Nc1cncc(-c2ccc3[nH]nc(-c4cc5cnccc5[nH]4)c3c2)c1 [Compound 268] (primary human fibroblasts derived from IPF patients (LL29 cells) treated with TGF-β1)
6.70

Jot down pEC50 (primary human fibroblasts derived from IPF patients (LL29 cells) treated with TGF-β1) of O=C(Nc1cncc(-c2ccc3[nH]nc(-c4cc5c(-c6cccc(F)c6)nccc5[nH]4)c3c2)c1)C1CC1 [Compound 20] .
6.78

Return reported pEC50 for target or system primary human fibroblasts derived from IPF patients (LL29 cells) treated with TGF-β1, item CC(C)C(=O)Nc1cncc(-c2ccc3[nH]nc(-c4cc5cnccc5[nH]4)c3c2)c1 [Compound 261] .
6.44

====

# Test system: primary human mesenchymal stem cells (hMSCs)
# assay_explanation: Induction of chondrogenesis in hMSCs (Rhodamine B / Nile Red nodule imaging)
# Type: cell-based
# test_conditions: maximum activity relative to TGF-β3 (10 ng/mL) positive control, read-out: Max. Activity as % TGF-β3 activity
Rule: Emax below 80% gives rule met. Equal to or above 80% gives rule not met.

Some entries whose results are on file:
* Fc1ccccc1-c1nccc2[nH]c(-c3n[nH]c4ccc(-c5cncc(CN6CCCCC6)c5)cc34)cc12 | rule met
* FC1(F)CCN(Cc2cncc(-c3ccc4[nH]nc(-c5cc6c(N7CCCCC7)nccc6[nH]5)c4c3)c2)C1 | rule met
* O=C(Nc1cncc(-c2ccc3[nH]nc(-c4cc5cnccc5[nH]4)c3c2)c1)C1CCCCC1 | rule not met
* Fc1ccccc1-c1nccc2[nH]c(-c3n[nH]c4ccc(-c5cncc(CN6CCC(F)(F)C6)c5)cc34)cc12 | rule not met

Report whether reported Emax is lower than 80% (strictly) for `O=C(Nc1cncc(-c2ccc3[nH]nc(-c4cc5cnccc5[nH]4)c3c2)c1)C1CCC1`
rule not met

Quick check: does `Fc1cccc(-c2nccc3[nH]c(-c4n[nH]c5ccc(-c6cccnc6)cc45)cc23)c1` have Emax under 80%?
rule met

====

# System: primary human fibroblasts derived from IPF patients (LL29 cells) treated with TGF-β1
# assay_explanation: Inhibition of the fibrotic process (αSMA staining) in TGF-β1-treated fibroblasts
# Type: cell-based
# test_conditions: Fibroblast, 96 h, % αSMA-positive LL29 cells, TGF-β1 20 ng/mL, 4 days
Collected EC50 values appear next to each entry.
Give the value in µM but do not write µM after it.

- c1cncc(-c2ccc3[nH]nc(-c4cc5cnccc5[nH]4)c3c2)c1: 0.106

Indicate its recorded EC50; the molecule in question is `O=C(Nc1cncc(-c2ccc3[nH]nc(-c4cc5c(N6CCCCC6)nccc5[nH]4)c3c2)c1)C1CC1`
9.01

For the molecule `O=C(Nc1cncc(-c2ccc3[nH]nc(-c4cc5c(-c6cccc(F)c6)nccc5[nH]4)c3c2)c1)C1CCCCC1` , give its reported EC50.
1.46

====

# Test system: primary human fibroblasts derived from IPF patients (LL29 cells) treated with TGF-β1
# assay_explanation: Inhibition of the fibrotic process (αSMA staining) in TGF-β1-treated fibroblasts
# Type: cell-based
# test_conditions: Fibroblast, 96 h, % αSMA-positive LL29 cells, TGF-β1 20 ng/mL, 4 days
metric: pEC50
Quick note: pEC50 means taking -log10 of the concentration in moles per liter.

* CC(C)(C)CC(=O)Nc1cncc(-c2ccc3[nH]nc(-c4cc5c(N6CCCCC6)nccc5[nH]4)c3c2)c1 | 5.83
* CS(=O)(=O)NCc1cc(F)cc(-c2nccc3[nH]c(-c4n[nH]c5ccc(-c6cncc(NC(=O)C7CCCC7)c6)cc45)cc23)c1 | 5.46
* Fc1ccccc1-c1nccc2[nH]c(-c3n[nH]c4ccc(-c5ccccn5)cc34)cc12 | 6.18
* CC(C)CC(=O)Nc1cncc(-c2ccc3[nH]nc(-c4cc5c(-c6ccncc6)nccc5[nH]4)c3c2)c1 | 5.65
* c1cncc(-c2ccc3[nH]nc(-c4cc5c(-c6ccsc6)nccc5[nH]4)c3c2)c1 | 6.19
* Fc1cccc(-c2nccc3[nH]c(-c4n[nH]c5ccc(C6CCNCC6)cc45)cc23)c1 | 5.48

Quickly give me recorded pEC50 for `CCNCc1cncc(-c2ccc3[nH]nc(-c4cc5c(-c6ccccc6F)nccc5[nH]4)c3c2)c1`
5.60

Give the value of pEC50 reported for the following: `CCNCc1cncc(-c2ccc3[nH]nc(-c4cc5cnccc5[nH]4)c3c2)c1`
5.90

Output measured pEC50 for this item: `CC(C)C(=O)Nc1cncc(-c2ccc3[nH]nc(-c4cc5c(N6CCN(C)CC6)nccc5[nH]4)c3c2)c1`
5.33

Note down pEC50 recorded for `O=C(Nc1cncc(-c2ccc3[nH]nc(-c4cc5c(-c6cccnc6)nccc5[nH]4)c3c2)c1)C1CCC1`
5.62

Specify pEC50 for `CCC(=O)Nc1cncc(-c2ccc3[nH]nc(-c4cc5c(-c6cccc(F)c6)nccc5[nH]4)c3c2)c1` and stop.
7.39

Values compiled from patent US10463651B2.
